The values you see were collected from patent EP0909764A1.

target: Progesteronrezeptor (Oryctolagus cuniculus, UniProt P06186)
Construct: Rezeptoren im Cytosol aus tierischen Target-Organen; from tissue; host or cells: uterus cytosol of estradiol-primed rabbit
Sequence (P06186 whole entry): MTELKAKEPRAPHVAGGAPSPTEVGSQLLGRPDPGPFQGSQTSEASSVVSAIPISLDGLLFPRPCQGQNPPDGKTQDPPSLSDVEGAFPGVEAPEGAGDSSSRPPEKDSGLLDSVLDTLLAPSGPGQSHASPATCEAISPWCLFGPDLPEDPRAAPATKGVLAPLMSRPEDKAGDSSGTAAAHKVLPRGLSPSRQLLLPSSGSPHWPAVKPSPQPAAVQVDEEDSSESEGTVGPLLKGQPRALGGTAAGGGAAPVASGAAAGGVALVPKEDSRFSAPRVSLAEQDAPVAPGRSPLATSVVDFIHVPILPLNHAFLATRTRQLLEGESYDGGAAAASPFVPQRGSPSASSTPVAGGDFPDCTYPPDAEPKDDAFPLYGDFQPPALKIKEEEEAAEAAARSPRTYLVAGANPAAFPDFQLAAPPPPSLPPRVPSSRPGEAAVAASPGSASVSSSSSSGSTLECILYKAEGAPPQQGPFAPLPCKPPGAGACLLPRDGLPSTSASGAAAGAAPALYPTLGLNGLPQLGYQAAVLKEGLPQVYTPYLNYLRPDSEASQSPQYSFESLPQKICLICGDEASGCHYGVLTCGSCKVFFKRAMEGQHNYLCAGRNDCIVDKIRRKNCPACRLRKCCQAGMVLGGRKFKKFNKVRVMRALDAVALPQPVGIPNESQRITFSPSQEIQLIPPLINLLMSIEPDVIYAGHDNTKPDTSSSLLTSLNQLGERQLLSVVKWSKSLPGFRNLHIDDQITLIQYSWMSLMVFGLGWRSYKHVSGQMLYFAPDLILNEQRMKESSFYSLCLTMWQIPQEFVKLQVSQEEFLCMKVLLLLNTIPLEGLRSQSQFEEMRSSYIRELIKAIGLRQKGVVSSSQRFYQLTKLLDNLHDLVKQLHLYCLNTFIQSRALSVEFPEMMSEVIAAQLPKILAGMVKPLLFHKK
method.summary: Receptor binding affinity, competitive binding with 3H-ORG 2058 in uterus cytosol
Design: species or system Kaninchen
measurement.parameters: uterus cytosol of estradiol-primed rabbit; tracer 3H-ORG 2058 5nM; 18 h at 0-4°C; quotient of IC50 values x 100 %
quantity.kind: relative molare Bindungs-affinität RBA (%) zum Progesteronrezeptor Progesteron = 100 %
Please give a number only; it is taken to be in %.

Some molecules with known relative molare Bindungs-affinität RBA (%) zum Progesteronrezeptor Progesteron = 100 % results, for comparison:
>>> df
                         structure_notation                                    target  result_value
0  COC[C@]1(O)CC[C@H]2[C@@H]3CCC4=CC(=O)CC[C@]45O[C@]35[C@@H](c3ccc(/C=N/OC(C)=O)cc3)C[C@@]21C  Progesteronrezeptor (Oryctolagus cuniculus, UniProt P06186)            31
1  COC[C@]1(OC)CC[C@H]2[C@@H]3CCC4=CC(=O)CCC4=C3[C@@H](c3ccc(/C=N/O)cc3)C[C@@]21C  Progesteronrezeptor (Oryctolagus cuniculus, UniProt P06186)           302

Problem: Which relative molare Bindungs-affinität RBA (%) zum Progesteronrezeptor Progesteron = 100 % value is on record for COC[C@]1(OC)CC[C@H]2[C@@H]3CCC4=CC(=O)CC[C@]45O[C@]35[C@@H](c3ccc(/C=N/O)cc3)C[C@@]21C ?
Solution: 88
